system: cancer cell lines; assay: Cancer cell proliferation activity (CellTiterGlo, 72 h); type: cell-based; details: Homo sapiens, IGROV-1, 72 h, IGROV1 cell line (ovary), 72 h; read-out: IC50
Collected IC50 values appear next to each entry.
outcome.measure: IC50 (µM)

CC[C@]1(CO)O[C@@H](n2cnc3c(N)nc(F)nc32)C[C@@H]1O [Cpd. No. 1]: 0.38
CCC[C@]1(CO)O[C@@H](n2cnc3c(N)nc(F)nc32)C[C@@H]1O [Cpd. No. 129]: 0.2

----------
test system: cancer cell lines; experiment: Cancer cell proliferation activity (CellTiterGlo, 72 h); format: cell-based; conditions: Homo sapiens, HeLa, 72 h, HELA (endometrial), 72 h; read-out: IC50 cell proliferation
pIC50: −log10 of the molar value.
Classify by measured pIC50: met if it is equal to or exceeds 6, not met if it is smaller.

C[C@]1(CO)O[C@@H](n2ccc(N)nc2=O)[C@@H](O)[C@@H]1O: not met
C[C@]1(CO)O[C@@H](n2cnc3c(N)nc(F)nc32)[C@H](O)[C@@H]1O: met
Nc1nc(F)nc2c1ncn2[C@@H]1O[C@H](CO)[C@@H](O)[C@@H]1O: not met
Nc1nc(F)nc2c1ncn2[C@@H]1O[C@H](CO)[C@@H](O)[C@H]1O: met
Nc1nc(=O)n([C@H]2C[C@H](O)[C@@H](CO)O2)cc1F: not met
C[C@]1(CO)O[C@@H](n2ccc(N)nc2=O)C(F)(F)[C@@H]1O: not met
Nc1nc(F)nc2c1ncn2[C@H]1C[C@H](O)[C@@H](CO)O1: met
Nc1nc(=O)n([C@H]2C[C@H](O)[C@](CO)(CF)O2)cc1F: not met
CCC[C@]1(CO)O[C@@H](n2cnc3c(N)nc(F)nc32)[C@H](O)[C@@H]1O: met
